measurement.protocol: Selectivity for D2 receptor compared to 5-HT1A receptor.
The threshold is 200. Values of Selectivity beneath it are tagged yes; values meeting or exceeding it are tagged no.

Solved entries (count: 3):
# strict comparison: is reported Selectivity < 200? input = COc1cccc2c1CCCC2CCCN1CCN(c2ccccc2)CC1 (stereo unspecified)
no

# strict comparison: is reported Selectivity < 200? input = `COc1ccccc1N1CCN(CCN[C@H]2CCCc3c(OC)cccc32)CC1`
yes

# strict comparison: is reported Selectivity < 200? input = `COc1ccccc1N1CCN(CCN[C@@H]2CCCc3c(OC)cccc32)CC1`
no

Attention now shifts to the item below.
# strict comparison: is reported Selectivity < 200? input = `COc1cccc2c1CCC[C@H]2CCCN1CCN(c2ccccc2)CC1`
no

----------
measurement.protocol: Selectivity for alpha-1 receptor compared to 5-HT1A receptor.
I would appreciate it if you labelled entries class 1 when Selectivity is 30 or higher, otherwise class 0.

Solved entries (count: 5):
Decide: Selectivity of `COc1ccccc1N1CCN(CCN[C@H]2CCCc3c(OC)cccc32)CC1` >= 30?
class 1

Decide: Selectivity of COc1ccccc1N1CCN(CCNC2CCCc3c(OC)cccc32)CC1 (configuration not stated) >= 30?
class 0

Decide: Selectivity of `COc1cccc2c1CCC[C@@H]2CCCN1CCN(c2ccccc2)CC1` >= 30?
class 0

Decide: Selectivity of `COc1ccccc1N1CCN(CCCN[C@@H]2CCCc3c(OC)cccc32)CC1` >= 30?
class 1

Decide: Selectivity of COc1cccc2c1CCCC2CCCN1CCN(c2ccccc2)CC1 (configuration not stated) >= 30?
class 1

New cases:
Decide: Selectivity of `COc1ccccc1N1CCN(CCCN[C@H]2CCCc3c(OC)cccc32)CC1` >= 30?
class 0

Decide: Selectivity of COc1ccccc1N1CCN(CCCNC2CCCc3c(OC)cccc32)CC1 (configuration not stated) >= 30?
class 1

Decide: Selectivity of `COc1cccc2c1CCC[C@H]2CCCN1CCN(c2ccccn2)CC1` >= 30?
class 1

Decide: Selectivity of `COc1ccccc1N1CCN(CCN[C@@H]2CCCc3c(OC)cccc32)CC1` >= 30?
class 1

Decide: Selectivity of `COc1cccc2c1CCC[C@H]2CCCN1CCN(c2ccccc2)CC1` >= 30?
class 1

Decide: Selectivity of `COc1cccc2c1CCC[C@@H]2CCCN1CCN(c2ccccn2)CC1` >= 30?
class 0

Decide: Selectivity of COc1cccc2c1CCCC2CCCN1CCN(c2ccccn2)CC1 (configuration not stated) >= 30?
class 1

----------
IC50 overview
target.of.assay: UniProt:P19327
Sequence (P19327 whole entry): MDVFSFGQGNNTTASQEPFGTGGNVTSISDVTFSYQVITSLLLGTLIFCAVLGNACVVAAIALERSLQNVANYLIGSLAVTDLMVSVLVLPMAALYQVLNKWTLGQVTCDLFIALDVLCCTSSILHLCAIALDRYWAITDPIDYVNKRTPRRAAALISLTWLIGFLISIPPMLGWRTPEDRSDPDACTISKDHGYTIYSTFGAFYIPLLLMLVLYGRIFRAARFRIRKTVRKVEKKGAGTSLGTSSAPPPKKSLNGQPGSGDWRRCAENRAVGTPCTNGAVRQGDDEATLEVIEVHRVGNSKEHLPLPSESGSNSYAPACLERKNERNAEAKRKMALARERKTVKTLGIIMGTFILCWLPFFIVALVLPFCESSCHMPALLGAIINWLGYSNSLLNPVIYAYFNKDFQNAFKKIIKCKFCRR
measurement.protocol: In vitro inhibition of [3H]8-OH-DPAT binding to rat 5-HT 1a receptors.
Supply the numeric figure in nM, leaving out any unit text.

Record excerpt, results attached:
Which measured IC50 value corresponds to `COc1ccccc1N1CCN(CCCN[C@@H]2CCCc3c(OC)cccc32)CC1` ?
7

Which measured IC50 value corresponds to `NCCCC1(CCCN)CCc2cccc(O)c2C1` ?
2.5

Which measured IC50 value corresponds to `COc1cccc2c1CCC[C@@H]2CCCN1CCN(c2ccccn2)CC1` ?
4.5

New cases:
Which measured IC50 value corresponds to `COc1ccccc1N1CCN(CCN[C@@H]2CCCc3c(OC)cccc32)CC1` ?
10

Which measured IC50 value corresponds to `COc1cccc2c1CCC[C@@H]2CCCN1CCN(c2ccccc2)CC1` ?
4.3
